System: UACC-257
Test: Growth inhibition of human UACC257 cells after 48 hrs by sulforhodamine B assay
Assay type: functional
Conditions: UACC-257, 48 h
endpoint: GI50

Fill in the blank: the reported GI50 of `CC(C)=CCC/C(C)=C/CC/C(C)=C/CC[C@]1(C)CCc2c3c(c(C)c(C)c2O1)OCN(CCCCCO)C3` is ____.
6.97 µM

I am curious: what GI50 value has been reported for `COc1ccc(CCN2COc3cc(C)c4c(c3C2)CC[C@@](C)(CC/C=C(\C)CC/C=C(\C)CCC=C(C)C)O4)cc1OC` ?
5.58 µM

Which GI50 value belongs to `CC(C)=CCC/C(C)=C/CC/C(C)=C/CC[C@]1(C)CCc2c3c(cc(C)c2O1)OCN(C1CCN(Cc2ccccc2)CC1)C3` ?
2.24 µM

Record request: GI50 value, item `CC(C)=CCC/C(C)=C/CC/C(C)=C/CC[C@]1(C)CCc2c3c(c(C)c(C)c2O1)OCN(CCCCO)C3`
1.73 µM

Which value of GI50 has been reported for `CC(C)=CCC/C(C)=C/CC/C(C)=C/CC[C@]1(C)CCc2c3c(cc(C)c2O1)OCN(CCCCCO)C3` in the records?
6.97 µM

---

Test system: MDA-MB-468
Assay: Growth inhibition of human MDA-MB-468 cells assessed as cell growth at 10 uM after 48 hrs by sulforhodamine B assay
Type: functional
Conditions: MDA-MB-468, 48 h, read-out: Activity
endpoint: growth at 10 µM (%)
Give the value, in units of %, as a plain number.

See these solved cases before continuing.
# smiles.entry, endpoint, measured
measured = [
    ("CC(C)=CCC/C(C)=C/CC/C(C)=C/CC[C@]1(C)CCc2c3c(c(C)c(C)c2O1)OCN(CCCCCCCCCCO)C3", "growth at 10 µM", 91.9),
    ("CC(C)=CCC/C(C)=C/CC/C(C)=C/CC[C@]1(C)CCc2c3c(c(C)c(C)c2O1)OCN(CCCCCCCCO)C3", "growth at 10 µM", -12.6),
]

# next compound below
Tell me the measured growth at 10 µM of `CC(C)=CCC/C(C)=C/CC/C(C)=C/CC[C@]1(C)CCc2c3c(cc(C)c2O1)OCN(CCCCCO)C3` , please.
43

---

List of growth at 10 µM values.
Tested on: SK-MEL-28
Assay: Growth inhibition of human SK-MEL-28 cells assessed as cell growth at 10 uM after 48 hrs by sulforhodamine B assay
Assay type: functional
Settings: SK-MEL-28, 48 h, read-out: Activity
Please reply with the bare figure in % and do not write the unit itself.

# smiles.entry, tested.target, growth at 10 µM [%]
measured = [
    ("CC(C)=CCC/C(C)=C/CC/C(C)=C/CC[C@]1(C)CCc2c3c(c(C)c(C)c2O1)OCN(CCCCCO)C3", "SK-MEL-28", 99.7),
]

Fill in the blank: the reported growth at 10 µM of `CC(C)=CCC/C(C)=C/CC/C(C)=C/CC[C@]1(C)CCc2c3c(c(C)c(C)c2O1)OCN(CCCCCCO)C3` is ____.
63.1

State the recorded growth at 10 µM for this entry: `CC(C)=CCC/C(C)=C/CC/C(C)=C/CC[C@]1(C)CCc2c3c(c(C)c(C)c2O1)OCN(CCCCCCCCCCO)C3`
98.2

// growth at 10 µM lookup, key: `CC(C)=CCC/C(C)=C/CC/C(C)=C/CC[C@]1(C)CCc2c3c(cc(C)c2O1)OCN(CCCO)C3`
-50.7

Fill blank: measured growth at 10 µM of the compound `CC(C)=CCC/C(C)=C/CC/C(C)=C/CC[C@]1(C)CCc2c3c(c(C)c(C)c2O1)OCN(CCCCCCCCCCCCO)C3` is ____.
110
